// reported Ki for each item listed
molecular target: full-length hepatitis C viral protein NS3•4A (Hepatitis C virus genotype 1a); construct: hexa-histidine (N); made in house; host or cells: Sf9 insect cells (baculovirus, pVL1392); experiment: biochemical; parameters: species or system HCV sub-type strain 1a; conditions: Enzyme Assay 2 (HCV NS3 Peptide Cleavage Assay) activity, apparent Ki class

CCC[C@H](NC(=O)[C@@H]1C[C@]2(CC(c3cc(C)c(OC)c(Cl)c3)=NO2)CN1C(=O)[C@@H](NC(=O)OC(C)(C)C)C(C)(C)C)C(=O)C(=O)NC1CC1 [Compound 645] = < 100 nM
CCC[C@H](NC(=O)[C@@H]1C[C@]2(CC(c3cc(Cl)c(OC)cc3OC)=NO2)CN1C(=O)[C@@H](NC(=O)CC1CCCCCC1)C(C)(C)C)C(=O)C(=O)NC [Compound 655] = 100 to 500 nM
CCC[C@H](NC(=O)[C@@H]1C[C@]2(CC(c3cc(Cl)c(OC)cc3OC)=NO2)CN1C(=O)[C@@H](NC(=O)CC1(C)CCOCC1)C(C)(C)C)C(=O)C(=O)N1CCC1 [Compound 356] = < 100 nM
CC(C)(C)[C@H](NC(=O)CC1CCCCC1)C(=O)N1C[C@@]2(CC(c3cccc(Cl)c3)=NO2)C[C@H]1C(=O)N[C@@H](CC1CC1)C(=O)C(=O)NC1CC1 [Compound 50] = < 100 nM

For the next question, use this molecule.
Req: Which Ki is reported for this molecule? CCC[C@H](NC(=O)[C@@H]1C[C@]2(CC(c3cccc(Cl)c3)=NO2)CN1C(=O)[C@@H](NC(=O)[C@@H]1C[C@H]1c1ccccc1)C(C)(C)C)C(=O)C(=O)NC1CC1 [Compound 271]
Resp: < 100 nM
